# Tested on: HT29 colon
# experiment_description: NCI tumour cell line growth inhibition, 48 h; in the data active = GI50 below about 0.43 µM; inactive = the rest
Choose one outcome from this list and give only that: 1.0 for active, 0.0 for inactive

Request: Field: outcome | Entry: Clc1ccc([I+]c2ccc(Cl)cc2Cl)c(Cl)c1
Result: 0.0

Request: Per the assay record, what outcome was assigned to S=C(NCc1ccc2c(c1)OCO2)N1CCN(c2ncnc3c2oc2ccccc23)CC1 ?
Result: 0.0

Request: Look up the recorded call for O=c1[nH]c2ccccc2n1C1CCN(CCCC(c2ccc(F)cc2)c2ccc(F)cc2)CC1 in this test.
Result: 0.0

Request: What is the recorded call for this compound in the test? Nc1nc2ccccc2c2c1S(=O)(=O)c1ccc(Cl)cc1C2=O
Result: 0.0

Request: Assay result, entry CN(C)CCCn1c2c(c3cc4c(cc3c1=O)OCO4)C(=O)c1ccccc1-2 — outcome?
Result: 1.0

Request: // param item: O=S(=O)(NCCCNc1nccc(-c2c(-c3ccc(F)cc3)nc3sccn23)n1)c1ccc(F)cc1 ; yields the recorded call
Result: 0.0

Request: // return assay outcome for COC1=C(OC)C(=O)C(CCCCCCCCCCO)=C(C)C1=O
Result: 0.0

Request: Write down the call the test reported for this compound. Item: COc1ccc2nc3cc(Cl)ccc3c(N3CCN(c4ccnc(N5CCN(C)CC5)n4)CC3)c2c1
Result: 0.0

Request: What outcome does the record of this test show for COc1ccc(S(=O)(=O)N2CCNCC2)cc1OC ?
Result: 0.0

Request: Assay outcome for CN1CCCC1c1cccnc1.O=C(O)c1ccccc1O.O=C([O-])c1ccccc1[OH2+].O=C([O-])c1ccccc1[OH2+].[Mn+2] (stereo not given) : what was it?
Result: 0.0
